# method: in vivo
# assay_context: dog, iv, 0.25 mg/kg
quantity_measured: clearance (mL/min/kg)
# number only, unit mL/min/kg dropped from output

Data request: State its clearance: Cc1nnc(-c2ccc(F)c(-c3c(=O)ccn4nc(Oc5ccc(F)cc5F)ccc34)c2)o1
Data returned: 2.8

* * *

# method: in vivo
# assay_context: rhesus monkey
quantity_measured: half-life (min)
State just the number; it will be interpreted in min.

Data request: In one line, give reported half-life of the entry Cc1nnc(-c2ccc(F)c(-c3c(=O)ccn4nc(Oc5ccc(F)cc5F)ccc34)c2)o1 .
Data returned: 414

* * *

# method: in vivo
# assay_context: rhesus monkey, po, 2 mg/kg
quantity_measured: bioavailability (%)
Quick reminder: number only, in %, skip the unit.

Data request: # return recorded bioavailability for input Cc1nnc(-c2ccc(F)c(-c3c(=O)ccn4nc(Oc5ccc(F)cc5F)ccc34)c2)o1
Data returned: 31
